Listed molecules paired with reported GI50
- System: RPMI-8226
- EXPERIMENT_NOTES: NCI tumour cell line growth inhibition, 48 h
Activity calls are given as the source filed them. Cut-off read from the data, not from the text of the source: active = GI50 up to about 1.1 µM and inactive = higher.

CC(NC1=NCCO1)c1cccc([N+](=O)[O-])c1 (stereo not drawn) = > 100 µM (inactive)
CSC1=N/C(=C\c2cccs2)C(=O)N1CN1CCCCC1 = 22.1 µM (inactive)
C[S+](C)CC(=O)c1ccc2c(c1)Sc1ccccc1O2 = 2.59 µM (inactive)

[ask] So what's the measured GI50 for this one? `N#C/C(=C\Nc1ccccn1)C(=O)c1ccco1`
[reply] > 100 µM (inactive)

[ask] Here is the next molecule: `CCC(=O)N1NC(=O)C(CC)(CC)C1=O`
[reply] > 100 µM (inactive)

[ask] Thanks! And `Cc1ccc(Nc2nc3c(=O)n(C)c(=O)n(C)c3nc2Nc2ccc(C)cc2)cc1` ?
[reply] 7.62 µM (inactive)

[ask] Okay, and `COC(=N)CCCl` ?
[reply] > 100 µM (inactive)

[ask] Follow-up entry: O=C(O)C1CCCCN1C(=O)c1ccccc1 (stereo not drawn)
[reply] > 100 µM (inactive)

[ask] Now consider `CN(C)/C=N/[C@@H](C(=O)O)c1ccccc1` and answer again.
[reply] > 100 µM (inactive)

[ask] Consider next the molecule O=C1OCC2(CO1)CC1C=CC2C1 (stereo not drawn) in the same way.
[reply] > 100 µM (inactive)

[ask] Same lookup for `O=[N+]([O-])c1ccc(Cl)cc1/C=N/C12CC3CC(CC(C3)C1)C2` , please.
[reply] 20.2 µM (inactive)

[ask] Moving on to `COc1cc2cc[n+](C)c(Cc3ccccc3)c2cc1OC`
[reply] > 100 µM (inactive)

[ask] Follow-up entry: C=CCCC1CCCCC/C1=N\N(C)C (stereo not drawn)
[reply] > 100 µM (inactive)

###

- Tested on: Malme-3M
- EXPERIMENT_NOTES: NCI tumour cell line growth inhibition, 48 h
Active and inactive are the calls of the source. No stated cut-off is given here; in the data, active = GI50 up to about 1.1 µM and inactive = higher.
Examples of molecules with documented GI50 follow.

Reference set (5 entries):
CCNC(=O)/C=C/CCC#Cc1ccc(-c2ccc(-c3cccs3)s2)s1 = 3.52 µM (inactive)
CC(C)(C)OC(=O)NCCC1CN(C(=O)c2ccccc2)c2ccccc21 (stereo unspecified) = 28.9 µM (inactive)
COC(=O)CCC1CCc2c(OC)ccc(O)c2C1=O (stereo unspecified) = > 100 µM (inactive)
COC(=O)C1=C(C)NC(C)=C(C(=O)OC)C1c1ccc(N=O)cc1 = 11.5 µM (inactive)
N#C/C(=C\Nc1ccccn1)C(=O)c1ccco1 = > 100 µM (inactive)

[ask] What value of measured GI50 is listed for O=C(O)C1CCCN1C(=O)c1cc(Cl)ccn1 (stereo unspecified) ?
[reply] > 100 µM (inactive)

[ask] Repeat for the following molecule: COc1ccc(C2C(C#N)=C(S)N(C3OC(COC(C)=O)C(OC(C)=O)C(OC(C)=O)C3OC(C)=O)C(c3ccccc3)=C2C(C)=O)cc1 (stereo unspecified)
[reply] > 100 µM (inactive)

[ask] Then what about the molecule [O-][S+](Cc1ccccn1)c1nc2ccccc2nc1-c1ccccc1 (stereo unspecified) ?
[reply] 33.1 µM (inactive)

###

Each entry below carries its reported GI50.
- System: CCRF-CEM
- EXPERIMENT_NOTES: NCI tumour cell line growth inhibition, 48 h
Active and inactive are the calls of the source. Cut-off read from the data, not from the text of the source: active = GI50 up to about 1.1 µM and inactive = higher.

Study these solved cases before continuing.
CC(C)(C)OC(=O)N1C(=O)OC[C@@H]2C=C[C@@H]21 = > 100 µM (inactive)
COc1ccc2cc(CNCCCCCCCCNCc3ccc4cc(OC)ccc4c3)ccc2c1 = 2.54 µM (inactive)
CCn1c(=O)c2c(=O)[nH][nH]c2c2ccccc21 = > 100 µM (inactive)
N#CC1(C#N)C2CCCCC23OC(=N)C1(C#N)C(c1ccco1)O3 (configuration not stated) = 10.5 µM (inactive)
COc1c(O)ccc(C2=Cc3ccc(O)cc3OC2)c1OC = 4.37 µM (inactive)

[ask] Which GI50 value belongs to `O=C1/C(=C/c2ccc(O)c([N+](=O)[O-])c2)CCC/C1=C\c1ccc(O)c([N+](=O)[O-])c1` ?
[reply] 30 µM (inactive)

[ask] Okay, and `Nc1nc(-c2ccccc2)cc(-c2cc(Cl)ccc2O)n1` ?
[reply] > 100 µM (inactive)
